B1: CPEB3 Ribozyme (parent)
chain: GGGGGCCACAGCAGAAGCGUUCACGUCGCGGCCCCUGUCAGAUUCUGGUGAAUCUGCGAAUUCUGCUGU

Variants of: B1
Assay Comment: self-cleavage, relative activity (ratio to wild type); higher = more cleavage; co-transcriptional
just bin them by self-cleavage: lower bin (below 0.2), middle bin (0.2 to below 0.9), upper bin (0.9 or more)

Use the examples below as a reference point.
In [3]: df
Out[3]:
   alteration  answer_label
0   U36A C66A    middle bin
1    G5A C32A    middle bin
2   A52U A59G     upper bin
3    G3U U20A     lower bin
4   C12U U20A     lower bin
5   C29G C45G    middle bin

Q. Into which category would you place C18A G68C ?
A. middle bin

Q. Into which category would you place C18G U53C ?
A. lower bin

Q. Into which category would you place A15C G48A ?
A. upper bin

Q. Into which category would you place G5U C18G ?
A. lower bin

Q. Into which category would you place A23C U62G ?
A. middle bin

Q. Into which category would you place U44C G47U ?
A. upper bin

Q. Into which category would you place A13C C35G ?
A. middle bin

Q. Into which category would you place A51G G65A ?
A. upper bin
